TARGET DESC: human dopamine D3 receptors (Homo sapiens)
Construct: expressed in transfected cells
Sequence (P35462 whole entry): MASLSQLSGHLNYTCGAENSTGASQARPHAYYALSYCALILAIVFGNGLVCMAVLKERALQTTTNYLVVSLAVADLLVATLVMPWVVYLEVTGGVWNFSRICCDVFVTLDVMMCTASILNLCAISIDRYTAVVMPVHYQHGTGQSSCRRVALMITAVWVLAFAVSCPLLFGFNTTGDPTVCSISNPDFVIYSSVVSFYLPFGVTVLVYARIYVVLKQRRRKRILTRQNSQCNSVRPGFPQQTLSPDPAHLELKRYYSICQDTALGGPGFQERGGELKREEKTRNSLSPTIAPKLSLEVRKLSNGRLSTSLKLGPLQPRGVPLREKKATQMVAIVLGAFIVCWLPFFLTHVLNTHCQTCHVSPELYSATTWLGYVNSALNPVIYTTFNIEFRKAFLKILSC
TEST NAME: Dopamine D3 receptor binding, [125I]-iodosulpride displacement, HEK-293 membranes
COND: selectivity, ratio of receptor binding constants D2L vs D3

COMPOUND: CCCN1C[C@@H]2C[C@@H](c3ccc(NS(=O)(=O)c4ccc(N5CCCC5)cc4)cc3)[C@@H]2C1 [Example 10]
Ki(D2)*/Ki(D3)*: 16

COMPOUND: CCCN1C[C@@H]2C[C@@H](c3ccc(NS(=O)(=O)c4ccc(SC(F)(F)F)cc4)cc3)[C@@H]2C1 [Example 8]
Ki(D2)*/Ki(D3)*: 17

COMPOUND: CCCN1C[C@H]2C[C@H](c3ccc(NS(=O)(=O)c4ccc(C(C)C)cc4)cc3)[C@H]2C1 [Example 14]
Ki(D2)*/Ki(D3)*: 8

COMPOUND: C=CCN1C[C@@H]2C[C@@H](c3ccc(NS(=O)(=O)c4ccc(OC(F)(F)F)cc4)cc3)[C@@H]2C1 [Example 6]
Ki(D2)*/Ki(D3)*: 11

COMPOUND: CCCN1C[C@@H]2C[C@@H](c3ccc(NS(=O)(=O)c4ccc(-c5ccco5)cc4)cc3)[C@@H]2C1 [Example 12]
Ki(D2)*/Ki(D3)*: 8

COMPOUND: CCCN1C[C@@H]2C[C@@H](c3ccc(NS(=O)(=O)c4ccc(C(C)C)cc4)cc3)[C@@H]2C1 [Example 1]
Ki(D2)*/Ki(D3)*: 28

COMPOUND: CCCN1C[C@@H]2C[C@@H](c3ccc(NS(=O)(=O)c4ccc(C(F)(F)F)cc4)cc3)[C@@H]2C1 [Example 5]
Ki(D2)*/Ki(D3)*: 23

All figures here come from patent US7834048B2.
